# Tested on: HT29 colon
# experiment summary: NCI-60 one-dose screen, 48 h (100 = growth as untreated, 0 = no growth, -100 = all killed)
# conditions: 10 µM unless noted
Compounds without any hit were thinned out: in the full panel of roughly 83,000, 20% have a hit.
Classes are defined on growth with ranges low: < 10%; medium: ≥ 10% and < 50%; high: ≥ 50%

Here are 4 compounds together with their reported answers.
compound: CS(=O)(CCCCN=C=S)=NC(=O)c1c(F)c(F)c(F)c(F)c1F (stereo not given)
class name: high

compound: N=c1c2ccccc2nc2n1CCCCC2
class name: high

compound: Nc1c(C(=O)Nc2cccc3c2OCCO3)sc2nc3c(cc12)C(=O)CCC3
class name: medium

compound: COc1ccc2nc3cc(Cl)ccc3c(N3CCN(c4nccc(Nc5ccccc5)n4)CC3)c2c1
class name: high

Req: Pick a category. Item: CC1CN(Cc2ccco2)C(=S)N(c2ccccc2)C1=O (stereo not given)
Resp: high

Req: Pick a category. Item: CC(=O)C1=C(O)C=C2Oc3c(C(=O)/C=C/c4cc(Cl)cc(Cl)c4)c(O)c(C)c(O)c3[C@]2(C)C1=O
Resp: low

Req: Pick a category. Item: CNC(=O)c1cc(Oc2ccc3nc(NC(=O)Nc4ccc(N5CCC(N(C)C)CC5)cc4)sc3c2)ccn1
Resp: medium

Req: Pick a category. Item: CCCCCCNC(=O)Oc1ccc(/C(=C(\C)c2ccccc2)c2ccc(OCCN(CC)CC)cc2)cc1
Resp: low

Req: Pick a category. Item: CC(=O)Oc1ccc(Nc2c3ccccc3nc3ccccc23)cc1
Resp: low

###

# Test system: IGROV1 ovarian
# experiment summary: NCI-60 one-dose screen, 48 h (100 = growth as untreated, 0 = no growth, -100 = all killed)
# conditions: 10 µM unless noted
About 83,000 compounds went through this panel and 20% of them were active in at least one assay; those are over-represented in the sample as a whole.
measurement name: growth (%)
// return numeric value only (unit: %, not printed)

compound: O=C(/C=C/c1ccc(Cl)cc1)/C=C/c1cc2ccccc2[nH]c1=O
tested target: IGROV1 ovarian
growth (%): 78.8

Req: Given CSc1[nH]c2ncnc(N)c2c1C#N , state its recorded growth.
Resp: 92.4

Req: Given COc1cc(NCCCCCN=C(N)NC(N)=NC(C)C)c2ncccc2c1 , state its recorded growth.
Resp: -13.1

Req: Given O=C(CO[N+](=O)[O-])Nc1ccc(C(=O)/C=C/c2ccc(Cl)cc2)cc1 , state its recorded growth.
Resp: -26

###

# Test system: T-47D breast
# experiment summary: NCI-60 one-dose screen, 48 h
# conditions: 10 µM unless noted
About 83,000 compounds went through this panel and 20% of them were active in at least one assay; those are over-represented in the sample as a whole. Active and inactive are the calls of the source. The calls were made as follows: active = growth percent below 10; inactive = the rest.
Return exactly one item of y = active, n = inactive

Here are 4 compounds together with their reported answers.
compound: CC/C=C\C[C@H](O)C/C=C1/C(=O)C=C[C@@H]1C/C=C\CCCC(=O)NC(C)C
class name: n
//
compound: COc1ccc2nc(NC(=O)c3cccnc3Nc3cc(OC)c(OC)c(OC)c3)sc2c1
class name: y
//
compound: Cl/C(=N\Nc1ccccc1)c1ccccc1
class name: n
//
compound: NCCN1CCN(c2nccc(-c3ccc4ccccc4c3)n2)CC1
class name: n

Req: Answer briefly: the call reported for CN1CCN(Cc2ccc(NC(=O)c3[nH]ncc3Nc3ncnc4c3CCC4)cc2)CC1 in this assay.
Resp: n

Req: Answer briefly: the call reported for COc1ccccc1/C=C(/C(=O)c1ccccc1)c1ccccc1 in this assay.
Resp: n

Req: Answer briefly: the call reported for CCn1cc2c(cc1=O)-c1nc3ccccc3c3ccnc(c13)C2=O in this assay.
Resp: n

Req: Answer briefly: the call reported for Nc1nc2ccc(-c3nc4ccc5[nH]ncc5c4c4c3CCC4)cc2s1 in this assay.
Resp: n

Req: Answer briefly: the call reported for O=c1c2c3c(sc2n2c(CCl)nnc2n1Cc1ccccc1)CCCC3 in this assay.
Resp: y

Req: Answer briefly: the call reported for CCN(CC)CCC(=O)Nc1ccc(Cn2nnc3c2C(=O)c2nnn(Cc4ccc(NC(=O)CCN(CC)CC)cc4)c2C3=O)cc1 in this assay.
Resp: y

Req: Answer briefly: the call reported for CCCCCCCCCCNC(=O)CCl in this assay.
Resp: n

Req: Answer briefly: the call reported for COc1ccc(C2CC(=O)Nc3c2c(C)nn3-c2nc3ccccc3[nH]2)cc1 (configuration not stated) in this assay.
Resp: n

Req: Answer briefly: the call reported for COc1cccc(NC(=O)c2sc3nc4c(cc3c2N)CN(Cc2ccccc2)CC4)c1 in this assay.
Resp: n

Req: Answer briefly: the call reported for NC(CC(=O)O)C(=O)OCc1ccccc1 (configuration not stated) in this assay.
Resp: n

Req: Answer briefly: the call reported for Cc1cccc(NC(=O)c2sc3nc4c(cc3c2N)C(=O)CCC4)c1 in this assay.
Resp: n

Req: Answer briefly: the call reported for C[C@@H]1CC[C@@H]2[C@@H]1[C@H](OC(=O)/C=C/c1ccccc1)[C@]1(c3ccccc3)C[C@@H](OC(=O)CO)[C@@]2(C)O1 in this assay.
Resp: n

Req: Answer briefly: the call reported for CCN(C(=O)CN1CCN(c2cc3c(cc2F)c(=O)c(C(=O)O)cn3C2CC2)CC1)c1nc(-c2ccc(OC)cc2)cs1 in this assay.
Resp: n

Req: Answer briefly: the call reported for COC(/C=C/c1ccc([N+](=O)[O-])cc1)OC in this assay.
Resp: n

Req: Answer briefly: the call reported for O=C(CN1CCN(c2cc3c(cc2F)c(=O)c(C(=O)N/N=C/c2ccccc2)cn3C2CC2)CC1)N/N=C\c1ccccc1 in this assay.
Resp: n

Req: Answer briefly: the call reported for Oc1ccccc1N=Cc1c(O)ccc2ccccc12 in this assay.
Resp: n

Req: Answer briefly: the call reported for CC/C(=C(\c1ccc(O)cc1)c1ccc(OCCN(C)CCN(C)C(=O)CCCCC(=O)c2c(C)[nH]c(/C=C3\N=C(c4ccc[nH]4)C=C3OC)c2C)cc1)c1ccccc1 in this assay.
Resp: n

Req: Answer briefly: the call reported for O=C(COc1cccc(/C=C2/Oc3ccccc3C2=O)c1)Nc1nccs1 in this assay.
Resp: n

###

# System: M14 melanoma
# experiment summary: NCI-60 one-dose screen, 48 h
# conditions: 10 µM unless noted
About 83,000 compounds went through this panel and 20% of them were active in at least one assay; those are over-represented in the sample as a whole. Activity calls are given as the source filed them. Rule for the calls: active = growth percent below 10; inactive = the rest.
Return exactly one item of yes (1) for active, no (0) for inactive

substance smiles: CSc1nc(NCCCNc2ccnc3cc(Cl)ccc23)cc(-c2ccccc2)n1
class name: yes (1)

Req: Answer briefly: the call reported for CCN(CC)CCC(=O)Nc1ccc(Cn2nnc3c2C(=O)c2nnn(Cc4ccc(NC(=O)CCN(CC)CC)cc4)c2C3=O)cc1 in this assay.
Resp: yes (1)

Req: Answer briefly: the call reported for O=C1c2cccnc2C(=O)c2c1c(C(=O)OCCN1CCOCC1)c1ccccn21 in this assay.
Resp: yes (1)

Req: Answer briefly: the call reported for OCCNCCNc1c2ccccc2nc2ccccc12 in this assay.
Resp: no (0)

Req: Answer briefly: the call reported for O=C1CCc2c(sc3[nH]c(=S)n(Cc4ccccc4)c(=O)c23)C1 in this assay.
Resp: no (0)

Req: Answer briefly: the call reported for COc1cc(NCCCCN=C(N)N)c2ncccc2c1 in this assay.
Resp: no (0)

Req: Answer briefly: the call reported for O=C(/C=C/c1ccc(Cl)cc1)c1ccc(O)c(CN2CCN(c3cc4c(cc3F)c(=O)c(C(=O)O)cn4C3CC3)CC2)c1 in this assay.
Resp: no (0)

Req: Answer briefly: the call reported for CCOC(=O)c1cnc2ccc(Br)cc2c1Nc1cccc(S(=O)(=O)NC)c1 in this assay.
Resp: no (0)

Req: Answer briefly: the call reported for COc1cc(NCCCCN=C(N)NC(N)=NC(C)C)c2ncccc2c1 in this assay.
Resp: no (0)

Req: Answer briefly: the call reported for O=C(CO[N+](=O)[O-])Nc1ccc(C(=O)/C=C/c2ccc3c(c2)OCO3)cc1 in this assay.
Resp: no (0)

###

# growth listing for each entry below
# Test system: CCRF-CEM leukemia
# experiment summary: NCI-60 one-dose screen, 48 h (100 = growth as untreated, 0 = no growth, -100 = all killed)
# conditions: 10 µM unless noted
This is part of a sample that, as a whole, favours compounds with a hit. Of some 83,000 tested, about 20% had one in any assay.
// return numeric value only (unit: %, not printed)

Req: Given CCOC(=O)c1cnc2cc(Cl)c(F)cc2c1Nc1cccc(NS(C)(=O)=O)c1 , state its recorded growth.
Resp: 103

Req: Given CCN(CC)CCC(=O)Nc1ccc(Cn2nnc3c2C(=O)c2nnn(Cc4ccc(NC(=O)CCN(CC)CC)cc4)c2C3=O)cc1 , state its recorded growth.
Resp: -13

Req: Given CC(=O)Oc1ccc(Nc2c3ccccc3nc3ccccc23)cc1 , state its recorded growth.
Resp: -8.66

Req: Given Cc1ccc2c(c1)C(=O)c1c-2c(OCCCN(C)C)nc2ccccc12 , state its recorded growth.
Resp: 19.3

Req: Given CN(C)CCCC(=O)Nc1ccc(Cn2nnc3c2C(=O)c2nnn(Cc4ccc(NC(=O)CCCN(C)C)cc4)c2C3=O)cc1 , state its recorded growth.
Resp: 16.8

Req: Given COc1ccc(N(Cc2cc(OC)c(OC)c(OC)c2)C2OC(=O)c3ccccc32)cc1 (stereo not given) , state its recorded growth.
Resp: 9.62

Req: Given O=C1/C(=C\c2cn(C(=O)c3ccc(Cl)cc3)c3ccccc23)c2ccccc2N1c1c(Cl)cccc1Cl , state its recorded growth.
Resp: 111

Req: Given CCCCCCCCCc1cc(CN2CCCCC2)c(O)c(CN2CCCCC2)c1 , state its recorded growth.
Resp: 61.7

Req: Given Clc1ccc(-c2nnc(COc3ccccc3Cl)o2)cc1 , state its recorded growth.
Resp: 92

Req: Given Cc1cc2cc3cc(C)c(N(C)C)cc3[n+](C)c2cc1N(C)C , state its recorded growth.
Resp: 13
